- Test system: KM12 colon
- assay-summary: NCI tumour cell line growth inhibition, 48 h

| compound | test-system | TGI |
| --- | --- | --- |
| COc1ccc(C(=O)NNC(=O)c2nsc3ccccc23)cc1 | KM12 colon | > 100 µM |
| COc1ccc(C(=C(C#N)C#N)c2ccc(OC)cc2)cc1 | KM12 colon | > 100 µM |
| CS(=O)(=O)OCCCCOS(C)(=O)=O | KM12 colon | > 1000 µM |
| CN(C)C(=O)C(NCCO)c1ccccc1 (centres undefined) | KM12 colon | > 100 µM |

====

- Test system: OVCAR-5 ovarian
- assay-summary: NCI tumour cell line growth inhibition, 48 h
Known TGI of a selection of compounds

| compound | result-qualifier | TGI, µM |
| --- | --- | --- |
| COC(=O)C12OCC34C(CC5C(C)C6=CC(=O)OC6=CC5(C)C3C(O)C1O)OC(=O)C(OC(C)=O)C24 (centres undefined) | = | 44.2 |
| O=c1/c(=C/c2ccccc2O)sc2nc3ccccc3n12 | > | 100 |
| Clc1cc(Cl)cc(C2SCc3nc4ccccc4n32)c1 (centres undefined) | = | 71.4 |
| C=CCNC(=O)ON1C(=O)CCC1=O | > | 100 |

====

- System: CAKI-1 renal
- assay-summary: NCI tumour cell line growth inhibition, 48 h
Known TGI of a selection of compounds
outcome-measure: TGI

| compound | endpoint-value |
| --- | --- |
| Cc1nc2ccccc2c(=O)n1Nc1ccc(C(=O)O)cc1 | > 100 µM |
| NNC(=O)CC(=O)Nc1ccccc1Cl | > 100 µM |
| Nc1cc(N2CCOCC2)nc(=O)n1-c1ccccc1 | > 100 µM |
| CCC(C#N)NCc1ccc(CNC(C#N)CC)cc1 (stereo not given) | > 100 µM |
| Cc1cccc(-c2cccc(COCc3cccc(-c4cccc(CO)n4)n3)n2)n1 | > 50 µM |

====

- System: M14 melanoma
- assay-summary: NCI tumour cell line growth inhibition, 48 h
Known TGI of a selection of compounds
outcome-measure: TGI (µM)

| compound | test-system | result-qualifier | endpoint-value |
| --- | --- | --- | --- |
| C=C1CC(COc2ccc3c(C)c(Cl)c(=O)oc3c2)(c2ccccc2)OC1=O (configuration not stated) | M14 melanoma | = | 2.24 |
| CCN1C(=O)/C(=C\c2coc3ccccc3c2=O)SC1=S | M14 melanoma | > | 100 |
| NC(CCCNc1ccc(O)cc1)C(=O)O (configuration not stated) | M14 melanoma | > | 66.9 |
| O=C1c2ccccc2-c2nc(-c3cccs3)cc3c2c1nc1ccccc13 | M14 melanoma | = | 18.3 |
| CC(=O)OC(=C(C#N)C#N)c1nccnc1C(=O)O | M14 melanoma | > | 100 |
| Nc1c(C(=O)c2cccc(C(O)(CO)CO)c2)cnn1-c1ccc(F)cc1 | M14 melanoma | > | 25 |
| C=C(C)[C@@H]1CC[C@]2(C(=O)N3CCN(C)CC3)CC[C@]3(C)[C@H](CC[C@@H]4[C@@]5(C)C/C(=C/c6ccncc6)[C@H](O)C(C)(C)[C@@H]5CC[C@]43C)[C@@H]12 | M14 melanoma | = | 12.6 |

====

Known TGI of a selection of compounds
- Tested on: SN12C renal
- assay-summary: NCI tumour cell line growth inhibition, 48 h

| item-smiles | test-system | TGI |
| --- | --- | --- |
| CCN(CC)c1ccc(CNc2cc(C)nc3ccc(OC)cc23)cc1 | SN12C renal | 20.6 µM |
| CC(=O)OC(=C(C#N)C#N)c1nccnc1C(=O)O | SN12C renal | > 100 µM |
| Cc1ccc2c(=O)cc(-c3cc4ccccc4s3)[nH]c2n1 | SN12C renal | > 100 µM |
| COc1ccc(/C=C(/C(=O)N2CCN(c3ccc(C)cc3)CC2)c2cc(OC)c(OC)c(OC)c2)cc1N | SN12C renal | > 100 µM |
| SCc1ccc(-c2ccc(CS)cc2)cc1 | SN12C renal | > 81.2 µM |
